Below: a set of entries, each annotated with reported GI50.
Tested on: CCRF-CEM
test.name: NCI tumour cell line growth inhibition, 48 h
Active and inactive are the calls of the source. No stated cut-off is given here; in the data, active = GI50 up to about 1.1 µM and inactive = higher.

- molecule: "CCOC(=O)C1C(=O)C=C(c2cc(C)ccc2O)CC1c1cccc(Cl)c1 (stereo not given)"
  GI50: "19.8 µM (inactive)"
- molecule: "CCOC(=O)C(C)(C)Oc1ccc2c(-c3ccc(Cl)cc3)cc(=O)oc2c1"
  GI50: "> 100 µM (inactive)"
- molecule: "COC(O)C(=O)c1c2c(cc3c1CCC3)CCCC2 (stereo not given)"
  GI50: "2.39 µM (inactive)"
- molecule: "CCOC(=O)C1C(=O)CC(O)(c2ccccc2)C(C(=O)OCC)C1c1ccc(N(C)C)cc1 (stereo not given)"
  GI50: "17.3 µM (inactive)"
- molecule: "OCC(O)C(OC1OC(CO)C(O)C(O)C1O)c1nn(-c2ccc(Cl)cc2)c2nc3cc(Cl)ccc3nc12 (stereo not given)"
  GI50: "> 100 µM (inactive)"
- molecule: "CC(C)N(C(=O)C12C3C4C1C1C2C3C41C(=O)N(C(C)C)C(C)C)C(C)C (stereo not given)"
  GI50: "> 50 µM (inactive)"
- molecule: "Cc1c(-c2ccccc2)[nH]n(C2=NCCN2)c1=O"
  GI50: "> 100 µM (inactive)"
- molecule: "COC(=O)[C@H]1C[C@H]1NC(=O)C(CC(=O)OCc1ccccc1)NC(=O)OCc1ccccc1 (stereo not given in full)"
  GI50: "31.6 µM (inactive)"
- molecule: "Cc1cccc2nc3n(c12)C(=O)c1ccccc1-3"
  GI50: "> 100 µM (inactive)"
- molecule: "C=CCOc1ccc(C(=N/NC(=O)c2ccccc2)/N=N/c2ccc(C)cc2)cc1OC"
  GI50: "9.14 µM (inactive)"

---

Test system: KM12
test.name: NCI tumour cell line growth inhibition, 48 h
Activity calls are given as the source filed them. Rule as the data show it: active = GI50 up to about 1.1 µM and inactive = higher.
Labels: class 1 (active), class 0 (inactive)

- molecule: "CC(=O)OC(C)(C)/C=C/C(=O)[C@](C)(O)[C@H]1[C@H](O)C[C@@]2(C)[C@@H]3CC=C4[C@@H](C=C(O)C(=O)C4(C)C)[C@]3(C)C(=O)C[C@]12C"
  system.under.test: "KM12"
  label.value: "class 1"
- molecule: "COc1cc(C)cc(C(=O)OCc2ccccc2)c1C1=C(Cl)C(=O)C(Cl)=CC1=O"
  system.under.test: "KM12"
  label.value: "class 0"
- molecule: "CC(C)c1cccc(C(C)C)c1NC(=O)CCC(=O)NN"
  system.under.test: "KM12"
  label.value: "class 0"
- molecule: "CCOc1ccc(NC(=O)C(=O)CC(=O)c2c[n+]([O-])c3cc(C)c(C)cc3[n+]2[O-])cc1"
  system.under.test: "KM12"
  label.value: "class 0"
- molecule: "COc1cc(/C=C(\\C#N)c2nc3ccccc3o2)ccc1O"
  system.under.test: "KM12"
  label.value: "class 0"
- molecule: "O=CNCCCN1CCN(CCCNC=O)CC1"
  system.under.test: "KM12"
  label.value: "class 0"
- molecule: "NC(CCCCCP(=O)(O)O)C(=O)O (configuration not stated)"
  system.under.test: "KM12"
  label.value: "class 0"
- molecule: "C[C@@H]1C[C@H](O)[C@]2(O)O[C@@H]3C[C@@]4(C=O)[C@@H](CC[C@@H]5[C@@H]4CC[C@]4(C)[C@@H](C6=CC(=O)OC6)CC[C@]54O)C[C@H]3O[C@@H]2O1"
  system.under.test: "KM12"
  label.value: "class 1"
- molecule: "COC(=O)[C@@H]1C[C@]2(Br)c3ccccc3N(S(=O)(=O)c3ccccc3)[C@@H]2N1C(=O)OC"
  system.under.test: "KM12"
  label.value: "class 0"
- molecule: "CCN(CC)CCNc1n[n+]([O-])c2ccccc2[n+]1[O-]"
  system.under.test: "KM12"
  label.value: "class 0"
- molecule: "COc1cc2c(cc1OC)C1C(O)C(OC)C(Br)C3(Br)CCN(C2)C13 (configuration not stated)"
  system.under.test: "KM12"
  label.value: "class 0"
- molecule: "COc1ccc(/C=C2\\N/C(=N/N)N=C2Cl)cc1"
  system.under.test: "KM12"
  label.value: "class 0"
- molecule: "Cc1ccc(S(=O)(=O)N2CCCN(S(=O)(=O)c3ccc(C)cc3)CC2)cc1"
  system.under.test: "KM12"
  label.value: "class 0"
- molecule: "CC(C)(C)c1ccc(O)c(C(O)c2ccncc2)c1 (configuration not stated)"
  system.under.test: "KM12"
  label.value: "class 0"
- molecule: "CCCCC[C@H]1CCCCCCCCCC(=O)OC2C(O[C@@H]3OC(C)[C@H](OC(=O)[C@@H](C)CC)C(O[C@@H]4OC(C)[C@H](O)C(O)[C@@H]4O)[C@@H]3OC(=O)[C@H](C)CC)[C@H](OC3C(O)[C@@H](O)C(C)O[C@H]3O1)OC(CO)[C@H]2O (some centres not stated)"
  system.under.test: "KM12"
  label.value: "class 0"
- molecule: "Cc1cc(C)c(O)c(Cc2cccc(Cc3cc(C)cc(C)c3O)c2O)c1"
  system.under.test: "KM12"
  label.value: "class 0"
- molecule: "O=C1c2cccnc2-c2nccc3c2c1nc1ccccc13"
  system.under.test: "KM12"
  label.value: "class 1"

---

Below, each entry is listed alongside its reported GI50.
System: SNB-19
test.name: NCI tumour cell line growth inhibition, 48 h
Calls of active or inactive are those of the source. No stated cut-off is given here; in the data, active = GI50 up to about 1.1 µM and inactive = higher.

- compound: "COC(=O)CCC(NC(=S)N/N=C(\\C)c1cccs1)C(=O)OC (stereo unspecified)"
  GI50: "> 100 µM (inactive)"
- compound: "CC(=O)C1C(=O)C(=O)N(c2ccc([N+](=O)[O-])cc2)C1=O (stereo unspecified)"
  GI50: "> 100 µM (inactive)"
- compound: "O=[N+]([O-])c1ccc(-c2cn(-c3ccc(Cl)cc3)cn2)cc1"
  GI50: "67 µM (inactive)"
- compound: "NCCN1CCCCCc2ccccc21"
  GI50: "> 10 µM (inactive)"
- compound: "O=c1c(O)c(-c2ccc(O)c(O)c2)oc2cc(O)ccc12"
  GI50: "10.7 µM (inactive)"
- compound: "CSc1c(C(=O)Nc2ccccc2)c(N)nn1-c1ccccc1"
  GI50: "> 100 µM (inactive)"

---

Each entry below carries its reported GI50.
Tested on: SF-268
test.name: NCI tumour cell line growth inhibition, 48 h
Active and inactive are the calls of the source. No stated cut-off is given here; in the data, active = GI50 up to about 1.1 µM and inactive = higher.
measured.attribute: GI50

- compound: "COc1ccc(/C(Cl)=C(\\C=O)c2ccccc2)cc1OC"
  result: "33.1 µM (inactive)"
- compound: "Cc1cccc2nc3n(c12)C(=O)c1ccccc1-3"
  result: "> 100 µM (inactive)"
- compound: "CC(=O)OC1(C#N)CC2OC1C1C2N=NN1C(=O)OC(C)(C)C (stereo unspecified)"
  result: "37.1 µM (inactive)"
- compound: "CC1=C2C=CC(=O)C[C@@]2(C)CCC1"
  result: "> 100 µM (inactive)"
- compound: "Cc1ccc(-c2cs/c(=N\\c3ccccc3)n2NC(=O)c2ccncc2)cc1"
  result: "42.1 µM (inactive)"
- compound: "C=C(CN(C)C)C(=O)c1ccccc1OC"
  result: "25.2 µM (inactive)"

---

System: SF-539
test.name: NCI tumour cell line growth inhibition, 48 h
The source made the active and inactive calls. No stated cut-off is given here; in the data, active = GI50 up to about 1.1 µM and inactive = higher.
Entries annotated with measured GI50
measured.attribute: GI50

- compound: "CCCNC(=O)C1C(=O)C(=O)N(CCC)C1=O (stereo unspecified)"
  result: "> 100 µM (inactive)"
- compound: "CCOC(=O)C(C)(C)Oc1ccc2c(-c3ccc(Cl)cc3)cc(=O)oc2c1"
  result: "> 100 µM (inactive)"
- compound: "O=[N+]([O-])c1cc(F)ccc1S(=O)(=O)c1ccccc1"
  result: "> 10 µM (inactive)"
- compound: "OC1=CN=COc2ccccc21"
  result: "> 100 µM (inactive)"
- compound: "COc1cc2c(cc1O)C1Cc3ccc(OC)c(O)c3C(C2)N1C (stereo unspecified)"
  result: "> 100 µM (inactive)"
- compound: "Nc1nc(N)c2ncn(CC(CO)CC(c3ccccc3)P(=O)(O)O)c2n1 (stereo unspecified)"
  result: "> 100 µM (inactive)"

---

Tested on: HOP-92
test.name: NCI tumour cell line growth inhibition, 48 h
Activity calls are given as the source filed them. No stated cut-off is given here; in the data, active = GI50 up to about 1.1 µM and inactive = higher.
Possible outcomes: true (1) = active, false (0) = inactive

- molecule: "C/C=C/[P+](c1ccccc1)(c1ccccc1)c1ccccc1"
  label.value: "true (1)"
- molecule: "CC(=O)/C=C/C1=C(C)CCCC1(C)CC(C)C (stereo not drawn)"
  label.value: "false (0)"
- molecule: "Cn1c(=O)n(C2(C)C[Se]C2)c2ccccc21"
  label.value: "false (0)"
- molecule: "CC1(C(=O)Nc2ccc3ccccc3c2)CC2(C)CC(C)(C1)C(O)NC2=O (stereo not drawn)"
  label.value: "false (0)"
- molecule: "O=C1/C(=C/c2ccco2)NC(=S)N1CN1CCCCC1"
  label.value: "false (0)"
- molecule: "O=C(O)NC(c1ccccc1)C(NC(=O)c1ccccc1)c1ccccc1 (stereo not drawn)"
  label.value: "false (0)"
- molecule: "Cc1ccc(CN2CCN(Cc3ccc(C)o3)C(C)C2)o1 (stereo not drawn)"
  label.value: "false (0)"
- molecule: "Cc1cccc2nc3n(c12)C(=O)c1ccccc1-3"
  label.value: "false (0)"
- molecule: "O=C(NCCCCNCCCNC(=O)C(F)(F)F)C(F)(F)F"
  label.value: "false (0)"
- molecule: "Cc1nc2cc(/N=N/c3c(O)ccc4ccccc34)ccc2[nH]1"
  label.value: "false (0)"
- molecule: "C=CCOc1ccc(C(=N/NC(=O)c2ccccc2)/N=N/c2ccc(C)cc2)cc1OC"
  label.value: "false (0)"
- molecule: "CN(C)CCNCCN"
  label.value: "false (0)"
- molecule: "COc1ccc(C2COc3c(ccc(O)c3C)C2)cc1OC (stereo not drawn)"
  label.value: "false (0)"
- molecule: "O=C(Cc1ccccc1)NS(=O)(=O)c1ccccc1"
  label.value: "false (0)"
- molecule: "CCc1nc2cc3cccnc3c(Cl)c2[nH]c1=O"
  label.value: "false (0)"
- molecule: "CCC(CCCCC1CC[C@H]2CC(=O)C[C@@H]12)OC (stereo partly drawn)"
  label.value: "false (0)"
- molecule: "CCOC(=O)Cn1nnc2cc(Nc3c(C)[n+]([O-])c4cc(F)c(OCC)cc4[n+]3[O-])ccc21"
  label.value: "false (0)"
- molecule: "O=c1[nH]c(NCc2cccnc2)nc2[nH]cnc12"
  label.value: "false (0)"
